In this section we review reported pIC50 values for a set of compounds.
tested_on: human TLR9 (Homo sapiens)
Construct: host or cells: HEK-Blue cells (HEK293-derived reporter line)
Sequence (Q9NR96 26-1032): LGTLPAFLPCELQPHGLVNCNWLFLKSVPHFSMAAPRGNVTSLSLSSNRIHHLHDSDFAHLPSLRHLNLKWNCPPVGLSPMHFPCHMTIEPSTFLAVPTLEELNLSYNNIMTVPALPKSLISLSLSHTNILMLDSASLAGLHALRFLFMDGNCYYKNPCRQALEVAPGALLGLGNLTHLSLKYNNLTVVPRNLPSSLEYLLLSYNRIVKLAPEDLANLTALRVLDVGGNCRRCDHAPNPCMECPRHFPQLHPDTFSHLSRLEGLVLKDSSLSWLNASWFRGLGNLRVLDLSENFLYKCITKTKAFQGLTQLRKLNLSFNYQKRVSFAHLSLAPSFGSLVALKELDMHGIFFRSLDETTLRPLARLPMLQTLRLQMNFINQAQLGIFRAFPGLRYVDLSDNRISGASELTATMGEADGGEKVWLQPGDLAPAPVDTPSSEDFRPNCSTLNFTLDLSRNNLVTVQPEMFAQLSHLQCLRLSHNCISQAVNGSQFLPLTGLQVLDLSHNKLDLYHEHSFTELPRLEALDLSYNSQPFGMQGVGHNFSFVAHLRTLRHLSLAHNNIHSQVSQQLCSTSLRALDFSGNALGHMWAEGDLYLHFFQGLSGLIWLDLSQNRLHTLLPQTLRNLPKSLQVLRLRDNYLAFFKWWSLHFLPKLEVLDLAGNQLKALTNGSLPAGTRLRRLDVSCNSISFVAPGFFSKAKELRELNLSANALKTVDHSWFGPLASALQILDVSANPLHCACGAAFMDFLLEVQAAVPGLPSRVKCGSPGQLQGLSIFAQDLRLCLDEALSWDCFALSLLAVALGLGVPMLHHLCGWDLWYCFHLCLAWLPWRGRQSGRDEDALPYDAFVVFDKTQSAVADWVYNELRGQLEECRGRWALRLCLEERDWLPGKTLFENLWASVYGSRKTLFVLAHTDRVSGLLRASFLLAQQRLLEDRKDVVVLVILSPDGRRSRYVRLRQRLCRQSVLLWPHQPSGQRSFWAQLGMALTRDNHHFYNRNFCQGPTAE
protocol: TLR9 inhibition reporter assay (HEK-Blue cells, SEAP reporter, ODN2006 stimulation)
Format: cell-based
experimental_conditions: HEK-Blue cells overexpressing human TLR9, SEAP reporter, ODN2006 5 nM
pIC50: −log10 of the molar value.

For orientation, consider the following solved cases.
CCc1c(-c2ccnc3[nH]ncc23)[nH]c2ccc(C3CCNCC3)c(C)c12 = < 4.30
CN(C)CC(=O)N1CCC(c2ccc3[nH]c(-c4cc(F)c5nccn5c4)c(CC(F)F)c3c2)CC1 = 6.00 to 7.00
CNC(=O)CN1CCC(c2ccc3[nH]c(-c4ccc5cnnn5c4)c(C(C)C)c3c2)CC1 = 4.30 to 6.00
CCN(C)C(=O)c1cn2cc(-c3[nH]c4ccc(C5CCNCC5)cc4c3C(C)C)cc(C)c2n1 = 4.30 to 6.00

Problem: # lookup: pIC50 of Cc1cc2ncccc2cc1-c1[nH]c2ccc(C3CCNCC3)cc2c1C(C)C
Result: 4.30 to 6.00

Problem: # lookup: pIC50 of Cc1cc2nnnn2cc1-c1[nH]c2ccc(C3CCN(CC(N)=O)CC3)cc2c1C(C)C
Result: 4.30 to 6.00

Problem: # lookup: pIC50 of Cc1nc2c(C)cc(-c3[nH]c4ccc(C5CCNCC5)cc4c3C(C)C)cn2c1C
Result: 6.00 to 7.00

Problem: # lookup: pIC50 of CC(C)c1c(-c2ccc3[nH]c(=O)oc3c2)[nH]c2ccc(C3CCNCC3)cc12
Result: 6.00 to 7.00
